Assay: Pharmacokinetic determination in mice after gavage administration (P.O.)
Assay type: in vivo
Settings: male, CD-1, mouse, po, 10 mg/kg, plasma
quantity measured: half-life (min)

INSERT INTO measurements (molecule, quantity_measured, assay_result) VALUES
  ('CCC(=O)N[C@@H]1CCCc2c(-c3ccc4c(c3)COC(=O)N4C)cncc21', 'half-life', 152),
  ('CCC(=O)N[C@@H]1CCCc2c(-c3ccc4c(c3)CCC(=O)N4C)cncc21 [Control Compound, reference compound]', 'half-life', 112),
  ('CCC(=O)N[C@@H]1CCCc2c(-c3cc(F)c4c(ccc(=O)n4C)c3)cncc21', 'half-life', 170);

(A) CCC(=O)N[C@@H]1CCCc2c(-c3cc(F)c4c(c3)COC(=O)N4C)cncc21
(B) [2H]C([2H])([2H])NC(=O)N[C@@H]1CCCc2c(-c3ccc4c(c3)COC(=O)N4C)cncc21
Input line: When their half-life values are compared, which is larger, A or B ? Kindly give the label for the entry you pick.
Output line: A
(A: 137 min, B: 64.2 min)

---

Biological target: human CYP11B2 enzyme (Homo sapiens)
Construct: the ORF of human CYP11B1 or CYP11B2 were transfected into G402 cells; expressed in transfected cells
Sequence (P19099 25-503): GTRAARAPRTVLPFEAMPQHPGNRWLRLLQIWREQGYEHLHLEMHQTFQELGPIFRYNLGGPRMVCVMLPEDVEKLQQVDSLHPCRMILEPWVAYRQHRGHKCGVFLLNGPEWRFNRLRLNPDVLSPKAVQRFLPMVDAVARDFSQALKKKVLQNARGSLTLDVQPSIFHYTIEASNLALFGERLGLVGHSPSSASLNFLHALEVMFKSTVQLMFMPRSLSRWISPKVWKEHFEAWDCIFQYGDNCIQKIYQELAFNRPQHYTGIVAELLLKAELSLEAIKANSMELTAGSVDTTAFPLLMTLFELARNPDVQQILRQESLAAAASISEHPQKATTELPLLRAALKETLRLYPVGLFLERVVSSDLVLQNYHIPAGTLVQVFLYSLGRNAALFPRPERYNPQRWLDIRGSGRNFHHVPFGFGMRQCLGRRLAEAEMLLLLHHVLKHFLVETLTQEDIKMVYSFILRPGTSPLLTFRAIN
Test: Enzyme inhibition activity assay in G402 cells stably expressing human CYP11B2 (aldosterone production from 11-DOC, LC/MS)
Type: cell-based
Details: 1 µM 11-DOC, 16 hours, aldosterone detected
pIC50: −log10 of the molar value.
quantity measured: pIC50

Look over these answered cases.
INSERT INTO measurements (sample_smiles, assay_result) VALUES
  ('COC(=O)N[C@@H]1CCOc2c(-c3ccc4c(c3)OCC(=O)N4C)cncc21', 7.66),
  ('[2H]C([2H])([2H])NC(=O)N[C@@H]1CCCc2c(-c3ccc4c(ccc(=O)n4C)c3)cncc21', 8.00);

(a) COC(=O)N[C@@H]1CCOc2c(-c3cc(Cl)c4c(ccc(=O)n4C)c3)cncc21
(b) CCC(=O)N[C@@H]1CCCc2c(-c3ccc4c(c3)CNC(=O)N4C)cncc21
Input line: Of a and b , which carries the smaller reported pIC50 figure? Kindly state the label of the option you pick.
Output line: b
(b: 7.51, a: 7.88)

---

Experiment: Pharmacokinetic determination in monkeys after gavage administration (P.O.)
Type: in vivo, Cynomolgus monkeys (Macaca fascicularis)
Conditions: male, cynomolgus monkey, po, 1 mg/kg, plasma
quantity measured: Cmax (nM)

INSERT INTO measurements (molecule, assay_result) VALUES
  ('CCC(=O)N[C@@H]1CCCc2c(-c3ccc4c(c3)CCC(=O)N4C)cncc21 [Control Compound, reference compound]', 834),
  ('[2H]C([2H])([2H])OC(=O)N[C@@H]1CCOc2c(-c3cc(F)c4c(ccc(=O)n4C)c3)cncc21 [Compound A50]', 1140);

---

Assay: in vivo
Details: rat, in vivo, po, 10 mg/kg
quantity measured: MRT inf (h)
Give the number; h is assumed, so skip it.

Input line: Requested field: MRT inf. Item: CCC(=O)N[C@@H]1CCOc2c(-c3ccc4c(c3)CCC(=O)N4C)cncc21 [Compound A02-P2]
Output line: 5.3

---

Assay: in vivo
Settings: male, Sprague-Dawley, rat, plasma, po, 10 mg/kg
quantity measured: AUC(0-t) (µM·h)

(A) CCC(=O)N[C@@H]1CCCc2c(-c3cc(C)c4c(ccc(=O)n4C)c3)cncc21
(B) CCC(=O)N[C@@H]1CCOc2c(-c3ccc4c(ccc(=O)n4C)c3)cncc21
Input line: # return whichever of A and B has the smaller AUC(0-t) In your reply, give the label of the chosen option.
Output line: A

---

Assay: Pharmacokinetic determination in monkeys after gavage administration (P.O.)
Assay type: in vivo, Cynomolgus monkeys (Macaca fascicularis)
Details: cynomolgus monkey, in vivo, po, 1 mg/kg, plasma, read-out: AUC0-24
quantity measured: AUC(0-t) at 24 h (µM·h)

(A) CCC(=O)N[C@@H]1CCOc2c(-c3ccc4c(c3)cc(C#N)n4C)cncc21 [Compound A10-P2]
(B) CCC(=O)N[C@@H]1CCOc2c(-c3ccc4c(c3)CCC(=O)N4C)cncc21 [Compound A02-P2]
Input line: Lab note: check whether A or B has the lower measured AUC(0-t) at 24 h. When you have decided, please share the label of that item.
Output line: B

---

Target: human CYP11B1 enzyme (Homo sapiens, UniProt P15538)
Construct: the ORF of human CYP11B1 or CYP11B2 were transfected into G402 cells
Sequence (P15538 25-503): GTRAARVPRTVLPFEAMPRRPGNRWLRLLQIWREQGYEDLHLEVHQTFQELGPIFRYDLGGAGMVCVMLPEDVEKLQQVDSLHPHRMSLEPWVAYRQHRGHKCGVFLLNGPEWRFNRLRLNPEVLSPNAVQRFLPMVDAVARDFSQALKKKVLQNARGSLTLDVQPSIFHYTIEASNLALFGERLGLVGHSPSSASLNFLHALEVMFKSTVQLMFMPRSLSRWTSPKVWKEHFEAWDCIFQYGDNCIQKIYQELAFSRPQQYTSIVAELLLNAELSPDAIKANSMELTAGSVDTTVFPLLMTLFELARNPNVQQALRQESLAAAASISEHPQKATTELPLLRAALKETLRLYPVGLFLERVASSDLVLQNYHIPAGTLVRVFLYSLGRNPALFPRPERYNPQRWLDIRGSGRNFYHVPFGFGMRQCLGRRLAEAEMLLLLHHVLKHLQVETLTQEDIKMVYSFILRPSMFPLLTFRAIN
Assay: Enzyme inhibition activity assay in G402 cells stably expressing human CYP11B1 (cortisol production from 11-DC, LC/MS)
Details: 1 µM 11-DC, 16 hours, cortisol detected
pIC50: −log10 of the molar value.
quantity measured: pIC50

INSERT INTO measurements (compound, assay_result) VALUES
  ('CCC(=O)N[C@@H]1CCCc2c(-c3cc(C)c4c(ccc(=O)n4C)c3)cncc21 [Compound C43]', 5.14),
  ('[2H]C([2H])([2H])NC(=O)N[C@@H]1CCCc2c(-c3ccc4c(c3)OCC(=O)N4C)cncc21 [Compound A25]', 5.67),
  ('C[C@H](F)C(=O)N[C@@H]1CCCc2c(-c3ccc4c(c3)CCC(=O)N4C)cncc21 [Compound D07-P2]', 5.79);

(1) [2H]C([2H])([2H])NC(=O)N[C@@H]1CCCc2c(-c3ccc4c(c3)CCC(=O)N4C)cncc21 [Compound D08]
(2) CNC(=O)N[C@@H]1CCOc2c(-c3ccc4c(c3)cc(C#N)n4C)cncc21 [Compound A37]
(3) COC(=O)N[C@@H]1CCOc2c(-c3cc(F)c4c(ccc(=O)n4C)c3)cncc21 [Compound A49]
(4) CCC(=O)N[C@@H]1CCCc2c(-c3cc(F)c4c(ccc(=O)n4C)c3)cncc21 [Compound C41]
Input line: Endpoint returns the given compounds ordered by ascending pIC50. Field: ranking. Enter the labels in the order requested.
Output line: 4, 3, 1, 2
(4: 5.31, 3: 5.66, 1: 6.10, 2: 6.51)

(A) COCC(=O)N[C@@H]1CCCc2c(-c3ccc4c(c3)CCC(=O)N4C)cncc21 [Compound D06]
(B) [2H]C([2H])([2H])NC(=O)N[C@@H]1CCOc2c(-c3ccc4c(c3)CCC(=O)N4C)cncc21 [Compound A11]
Input line: Task for the reader: decide whether A or B has the larger pIC50. Selection: enter the item's label.
Output line: A
(A: 6.54, B: 5.90)

(I) [2H]C([2H])([2H])N(C(=O)N[C@@H]1CCCc2c(-c3ccc4c(c3)CCC(=O)N4C)cncc21)C([2H])([2H])[2H] [Compound D16]
(II) CCC(=O)N[C@@H]1CCCc2c(-c3ccc4c(c3)cc(C#N)n4C)cncc21 [Compound C36]
(III) CNC(=O)N[C@@H]1CCCc2c(-c3ccc4c(ccc(=O)n4C)c3)cncc21 [Compound A21]
(IV) CCC(=O)N[C@@H]1CCOc2c(-c3ccc4c(c3)CCC(=O)N4C)cncc21 [Compound A02-P2]
(V) COC(=O)N[C@@H]1CCOc2c(-c3cc(Cl)c4c(ccc(=O)n4C)c3)cncc21 [Compound A53]
Input line: Ascending by pIC50, please: list the compounds accordingly. Reply with the item labels sorted in the order that was asked for.
Output line: IV, V, I, III, II
(IV: 5.43, V: 5.70, I: 5.91, III: 6.13, II: 6.58)

(A) [2H]C([2H])([2H])OC(=O)N[C@@H]1CCCc2c(-c3ccc4c(c3)OCC(=O)N4C)cncc21 [Compound A29]
(B) CCC(=O)N[C@@H]1CCCc2c(-c3cnc4c(c3)cc(C#N)n4C)cncc21 [Compound C37]
Input line: Lab notebook, comparison: A versus B , higher pIC50 goes to which? Write down the label attached to your selection.
Output line: A
(A: 6.32, B: 5.77)
